# Measured target: FAS (Homo sapiens, UniProt P49327)
# Construct: Human FAS was purified from cultured ZR-75-1 human breast cancer cells; endogenous in cells
# Sequence (P49327 whole entry): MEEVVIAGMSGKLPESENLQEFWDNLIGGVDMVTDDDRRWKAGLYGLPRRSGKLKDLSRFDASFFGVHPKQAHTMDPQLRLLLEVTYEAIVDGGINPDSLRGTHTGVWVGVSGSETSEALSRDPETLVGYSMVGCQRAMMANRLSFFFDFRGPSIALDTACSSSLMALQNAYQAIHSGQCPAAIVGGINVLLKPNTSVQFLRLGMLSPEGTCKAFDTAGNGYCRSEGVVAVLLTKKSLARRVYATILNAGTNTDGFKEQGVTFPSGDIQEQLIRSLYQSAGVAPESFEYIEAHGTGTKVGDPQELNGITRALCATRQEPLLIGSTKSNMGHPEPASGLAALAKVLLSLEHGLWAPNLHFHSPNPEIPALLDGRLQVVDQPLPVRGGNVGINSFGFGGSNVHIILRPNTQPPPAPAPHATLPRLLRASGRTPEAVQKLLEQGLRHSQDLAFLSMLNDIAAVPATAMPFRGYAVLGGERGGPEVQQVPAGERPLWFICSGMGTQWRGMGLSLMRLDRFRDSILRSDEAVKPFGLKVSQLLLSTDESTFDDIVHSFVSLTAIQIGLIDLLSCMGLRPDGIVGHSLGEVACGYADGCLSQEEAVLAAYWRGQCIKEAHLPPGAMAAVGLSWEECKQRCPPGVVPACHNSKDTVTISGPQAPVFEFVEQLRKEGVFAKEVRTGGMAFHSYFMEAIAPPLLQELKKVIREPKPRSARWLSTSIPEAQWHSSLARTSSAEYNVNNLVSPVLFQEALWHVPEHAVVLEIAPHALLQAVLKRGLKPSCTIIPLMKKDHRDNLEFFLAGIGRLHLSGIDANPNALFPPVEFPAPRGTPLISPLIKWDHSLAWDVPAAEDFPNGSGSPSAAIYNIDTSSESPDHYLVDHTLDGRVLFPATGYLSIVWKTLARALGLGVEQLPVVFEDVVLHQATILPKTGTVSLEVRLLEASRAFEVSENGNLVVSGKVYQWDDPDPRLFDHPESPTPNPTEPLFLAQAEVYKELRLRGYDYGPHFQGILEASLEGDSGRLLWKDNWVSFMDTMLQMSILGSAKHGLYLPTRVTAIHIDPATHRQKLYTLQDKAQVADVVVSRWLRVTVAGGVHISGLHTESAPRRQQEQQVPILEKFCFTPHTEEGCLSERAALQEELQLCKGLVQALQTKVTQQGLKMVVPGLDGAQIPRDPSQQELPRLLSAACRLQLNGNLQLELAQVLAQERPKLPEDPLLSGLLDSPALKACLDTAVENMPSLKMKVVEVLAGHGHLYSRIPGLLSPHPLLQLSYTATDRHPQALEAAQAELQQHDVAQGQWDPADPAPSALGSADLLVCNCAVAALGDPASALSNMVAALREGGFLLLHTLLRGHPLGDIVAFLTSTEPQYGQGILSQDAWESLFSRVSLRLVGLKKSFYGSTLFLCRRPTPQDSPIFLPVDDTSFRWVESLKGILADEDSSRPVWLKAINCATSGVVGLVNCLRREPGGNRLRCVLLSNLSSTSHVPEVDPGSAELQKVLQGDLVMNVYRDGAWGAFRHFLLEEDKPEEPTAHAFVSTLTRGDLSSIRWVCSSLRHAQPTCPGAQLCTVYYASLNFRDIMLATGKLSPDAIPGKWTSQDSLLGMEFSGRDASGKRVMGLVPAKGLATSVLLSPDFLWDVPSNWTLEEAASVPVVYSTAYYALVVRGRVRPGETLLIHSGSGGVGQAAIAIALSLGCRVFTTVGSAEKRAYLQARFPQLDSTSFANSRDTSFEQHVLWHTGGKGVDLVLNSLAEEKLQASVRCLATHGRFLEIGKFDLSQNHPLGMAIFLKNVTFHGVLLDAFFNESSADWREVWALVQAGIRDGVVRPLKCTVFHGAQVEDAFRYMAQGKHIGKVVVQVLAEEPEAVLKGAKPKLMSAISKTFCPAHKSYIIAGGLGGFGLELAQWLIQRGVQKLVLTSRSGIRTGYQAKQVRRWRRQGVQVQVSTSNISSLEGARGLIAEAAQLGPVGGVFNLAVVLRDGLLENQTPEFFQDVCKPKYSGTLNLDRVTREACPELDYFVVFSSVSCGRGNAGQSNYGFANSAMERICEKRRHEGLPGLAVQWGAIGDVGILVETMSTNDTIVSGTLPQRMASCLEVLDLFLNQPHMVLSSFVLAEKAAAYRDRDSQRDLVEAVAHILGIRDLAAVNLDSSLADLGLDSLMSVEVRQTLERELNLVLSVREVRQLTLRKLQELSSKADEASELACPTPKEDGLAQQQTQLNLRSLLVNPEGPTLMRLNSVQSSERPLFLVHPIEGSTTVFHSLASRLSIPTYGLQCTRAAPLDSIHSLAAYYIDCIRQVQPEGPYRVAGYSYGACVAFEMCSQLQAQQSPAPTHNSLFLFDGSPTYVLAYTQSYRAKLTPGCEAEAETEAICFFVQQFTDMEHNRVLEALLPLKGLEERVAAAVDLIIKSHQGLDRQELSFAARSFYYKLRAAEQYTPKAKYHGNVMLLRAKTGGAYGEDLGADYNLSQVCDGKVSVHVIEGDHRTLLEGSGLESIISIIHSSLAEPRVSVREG
# Experimental protocol: FAS (IC50) marked (SB)
# Conditions: value marked (SB), not defined
Assay metric: IC50

>  <Compound>
O=C(NNC(=O)c1cc(O)cs1)c1ccco1

>  <Measured target>
FAS (Homo sapiens, UniProt P49327)

>  <Observed>
135 µM

$$$$
>  <Compound>
CCCCCCCCNC(=O)c1cc(O)cs1

>  <Measured target>
FAS (Homo sapiens, UniProt P49327)

>  <Observed>
325 µM

$$$$
>  <Compound>
O=C(NNc1ccc(Cl)cc1)c1cc(O)cs1

>  <Measured target>
FAS (Homo sapiens, UniProt P49327)

>  <Observed>
510 µM

$$$$
>  <Compound>
COC(=O)c1sc(C(=O)NNc2ccc(Cl)cc2)cc1O

>  <Measured target>
FAS (Homo sapiens, UniProt P49327)

>  <Observed>
305 µM

$$$$
